- ASSAY: Cytotoxicity against mouse TM3 cells assessed as cell viability after 48 hrs by Cell Titer Glo assay
- Type: cell-based
- MEASUREMENT_SETUP: read-out: LD50
Would you kindly list CC50 at 48 h for each of these compounds?

Exercise: Please report CC50 at 48 h for the following compound: C=C(C)Cn1c(SCC(=O)c2cccs2)nc2sc3c(c2c1=O)CCNC3
Key: 20.1 µM

Exercise: Please report CC50 at 48 h for the following compound: C=C(C)Cn1c(SCC(=O)c2cccs2)nc2sc3ccccc3c2c1=O
Key: > 50 µM

Exercise: Please report CC50 at 48 h for the following compound: O=C(CSc1nc2ccccc2c(=O)n1C1CC1)c1cccs1
Key: > 50 µM

Exercise: Please report CC50 at 48 h for the following compound: C=C(C)Cn1c(SCC(=O)c2cccs2)nc2ccccc2c1=O
Key: > 50 µM

Exercise: Please report CC50 at 48 h for the following compound: O=C(CSc1nc2ccccc2c(=O)n1C1CC1)c1ccccc1
Key: > 50 µM

Exercise: Please report CC50 at 48 h for the following compound: C=C(C)Cn1c(SCC(=O)c2cccs2)nc2sc3c(c2c1=O)CCOC3
Key: > 50 µM

###

- ASSAY: Cytotoxicity against mouse TM3 cells assessed as cell viability after 48 hrs by Cell Titer Glo assay
- Assay type: cell-based
- MEASUREMENT_SETUP: read-out: LD50
OBSERVED_PROPERTY: CC50 at 48 h

Exercise: Please report CC50 at 48 h for the following compound: O=C(CSc1nc2sccc2c(=O)n1C1CC1)c1ccccc1
Key: > 50 µM

Exercise: Please report CC50 at 48 h for the following compound: O=C(CSc1nc2sc3c(c2c(=O)n1CC1CCC1)CCCC3)c1cccs1
Key: 45.6 µM

Exercise: Please report CC50 at 48 h for the following compound: C=C(C)Cn1c(SCC(=O)c2ccccc2)nc2sc3c(c2c1=O)CCCC3
Key: > 50 µM

Exercise: Please report CC50 at 48 h for the following compound: O=c1c2ccsc2nc(SCC(O)c2ccccc2)n1C1CC1 (stereo not given)
Key: > 50 µM

Exercise: Please report CC50 at 48 h for the following compound: CCCn1c(SCC(=O)c2cccs2)nc2sc3c(c2c1=O)CCCC3
Key: > 50 µM

###

OBSERVED_PROPERTY: pIC50
As a rule, pIC50 stands for the negative log10 of the concentration, concentration in M.

Exercise: Provide pIC50, tested on 3',5'-cyclic-AMP phosphodiesterase 4D (Homo sapiens, UniProt Q08499), for O=c1c2ccsc2nc(SCC(O)c2ccccc2)n1C1CC1 (centres undefined) .
Sequence (Q08499 whole entry): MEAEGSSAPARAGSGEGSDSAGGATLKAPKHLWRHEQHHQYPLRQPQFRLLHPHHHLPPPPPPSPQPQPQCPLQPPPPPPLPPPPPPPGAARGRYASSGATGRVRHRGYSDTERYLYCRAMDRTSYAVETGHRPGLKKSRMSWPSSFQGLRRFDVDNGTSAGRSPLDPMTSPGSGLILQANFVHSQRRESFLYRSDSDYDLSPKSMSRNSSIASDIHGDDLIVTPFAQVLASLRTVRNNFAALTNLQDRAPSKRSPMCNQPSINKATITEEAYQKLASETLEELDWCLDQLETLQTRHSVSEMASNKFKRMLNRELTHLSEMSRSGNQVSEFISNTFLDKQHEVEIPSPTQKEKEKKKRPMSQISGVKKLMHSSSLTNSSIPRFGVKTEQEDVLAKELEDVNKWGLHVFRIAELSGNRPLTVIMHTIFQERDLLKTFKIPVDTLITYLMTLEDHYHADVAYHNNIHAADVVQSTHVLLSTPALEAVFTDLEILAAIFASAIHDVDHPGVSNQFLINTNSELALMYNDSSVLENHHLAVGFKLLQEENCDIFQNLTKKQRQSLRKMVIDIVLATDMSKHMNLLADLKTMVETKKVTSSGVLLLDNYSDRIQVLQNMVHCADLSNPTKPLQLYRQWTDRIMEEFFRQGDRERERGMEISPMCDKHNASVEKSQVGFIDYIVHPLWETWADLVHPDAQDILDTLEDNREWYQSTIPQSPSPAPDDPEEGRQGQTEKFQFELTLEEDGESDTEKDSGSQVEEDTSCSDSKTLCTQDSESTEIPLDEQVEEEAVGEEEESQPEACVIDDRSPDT
Key: 5.22

Exercise: Provide pIC50, tested on 3',5'-cyclic-AMP phosphodiesterase 4D (Homo sapiens, UniProt Q08499), for C=C(C)Cn1c(SCC(=O)c2cccs2)nc2sc3c(c2c1=O)CCCC3 .
Key: 6.42

Exercise: Provide pIC50, tested on 3',5'-cyclic-AMP phosphodiesterase 4D (Homo sapiens, UniProt Q08499), for C=C(C)Cn1c(SCC(=O)c2ccccc2)nc2sc3c(c2c1=O)CCCC3 .
Key: 6.02

Exercise: Provide pIC50, tested on 3',5'-cyclic-AMP phosphodiesterase 4D (Homo sapiens, UniProt Q08499), for CCCn1c(SCC(=O)c2cccs2)nc2sc3c(c2c1=O)CCCC3 .
Key: 6.31

###

- ASSAY: Inhibition of Hh signaling pathway in mouse TM3 cells assessed as downregulation of Gli1 gene expression after 48 hrs by luciferase reporter gene assay
- Assay type: cell-based
- MEASUREMENT_SETUP: TM3, 48 h, read-out: EC50
OBSERVED_PROPERTY: EC50 (nM)
I only need the number, in nM, no unit after it.

Exercise: Please report EC50 for the following compound: C=C(C)Cn1c(SCC(=O)c2cccs2)nc2sc3c(c2c1=O)CCSC3
Key: 4570

Exercise: Please report EC50 for the following compound: C=C(C)Cn1c(SCC(=O)c2cccs2)nc2sccc2c1=O
Key: 931

Exercise: Please report EC50 for the following compound: C=C(C)Cn1c(SCC(=O)c2ccncc2)nc2sc3c(c2c1=O)CCCC3
Key: 19800

Exercise: Please report EC50 for the following compound: O=C(CSc1nc2sc3c(c2c(=O)n1CC1CCC1)CCCC3)c1cccs1
Key: 1990

Exercise: Please report EC50 for the following compound: C=C(C)Cn1c(SCC(=O)c2cccs2)nc2sc3c(c2c1=O)CCCC3
Key: 1340

Exercise: Please report EC50 for the following compound: C=C(C)Cn1c(SCC(=O)c2cccnc2)nc2sc3c(c2c1=O)CCCC3
Key: 11100

Exercise: Please report EC50 for the following compound: O=C(CSc1nc2sc3c(c2c(=O)n1CC1CC1)CCCC3)c1cccs1
Key: 2070

Exercise: Please report EC50 for the following compound: O=C(CSc1nc2ccccc2c(=O)n1C1CC1)c1cccs1
Key: 685

Exercise: Please report EC50 for the following compound: O=C(CSc1nc2sc3c(c2c(=O)n1-c1ccccc1)CCCC3)c1cccs1
Key: 8250

Exercise: Please report EC50 for the following compound: C=C(C)Cn1c(SCC(=O)c2ccccc2)nc2sc3c(c2c1=O)CCCC3
Key: 5700

Exercise: Please report EC50 for the following compound: C=C(C)Cn1c(SCC(=O)N2CCCCC2C)nc2sc3c(c2c1=O)CCCC3 (configuration not stated)
Key: 2320

Exercise: Please report EC50 for the following compound: O=C(CSc1nc2sccc2c(=O)n1C1CC1)c1cccs1
Key: 933

Exercise: Please report EC50 for the following compound: Cc1c(C(=O)Nc2ccc(N3C[C@@H](C)O[C@@H](C)C3)nc2)cccc1-c1ccc(OC(F)(F)F)cc1
Key: 1.2

Exercise: Please report EC50 for the following compound: C=CCn1c(SCC(=O)c2cccs2)nc2sc3c(c2c1=O)CCCC3
Key: 2360

Exercise: Please report EC50 for the following compound: O=C(CSc1nc2ccccc2c(=O)n1C1CC1)c1ccccc1
Key: 1160

Exercise: Please report EC50 for the following compound: C=C(C)Cn1c(SCC(=O)c2cccs2)nc2sc3c(c2c1=O)CCNC3
Key: 6400

###

- ASSAY: Inhibition of Hh signaling pathway in Sufu deficient MEF cells assessed as downregulation of Ptch1 mRNA expression at 10 uM after 24 hrs by qRT-PCR analysis
- Type: cell-based
- MEASUREMENT_SETUP: Mus musculus
Would you kindly list inhibition for each of these molecules?
I only need the number, in %, no unit after it.

Exercise: Please report inhibition for the following molecule: C=C(C)Cn1c(SCC(=O)N2CCCCC2C)nc2sc3c(c2c1=O)CCCC3 (stereo not given)
Key: 49.2

Exercise: Please report inhibition for the following molecule: O=C(CSc1nc2ccccc2c(=O)n1C1CC1)c1cccs1
Key: 9.9

Exercise: Please report inhibition for the following molecule: CCCn1c(SCC(=O)c2cccs2)nc2sc3c(c2c1=O)CCCC3
Key: 39.9

Exercise: Please report inhibition for the following molecule: C=C(C)Cn1c(SCC(=O)c2ccccc2)nc2sc3c(c2c1=O)CCCC3
Key: 60.4

Exercise: Please report inhibition for the following molecule: O=C(CSc1nc2sccc2c(=O)n1C1CC1)c1ccccc1
Key: -0.3

Exercise: Please report inhibition for the following molecule: O=C(CSc1nc2sccc2c(=O)n1C1CC1)c1cccs1
Key: -3.3

Exercise: Please report inhibition for the following molecule: O=C(CSc1nc2sc3c(c2c(=O)n1C1CC1)CCCC3)c1cccs1
Key: 26.5

Exercise: Please report inhibition for the following molecule: CN(C)c1ccccc1CN1CCCN(Cc2ccccc2N(C)C)C1c1ccncc1
Key: 52.8

Exercise: Please report inhibition for the following molecule: C=C(C)Cn1c(SCC(=O)c2cccs2)nc2sc3c(c2c1=O)CCCC3
Key: 32.2

Exercise: Please report inhibition for the following molecule: O=c1c2ccsc2nc(SCC(O)c2ccccc2)n1C1CC1 (stereo not given)
Key: -4.8

###

- ASSAY: Inhibition of Hh signaling pathway in mouse TM3 cells assessed as downregulation of Gli1 gene expression after 48 hrs by luciferase reporter gene assay
- Type: cell-based
- MEASUREMENT_SETUP: TM3, 48 h, read-out: EC50
OBSERVED_PROPERTY: pEC50
As a rule, pEC50 stands for the negative log10 of the concentration, concentration in M.

Exercise: Please report pEC50 for the following molecule: CC(O)(CSc1nc2sccc2c(=O)n1C1CC1)c1ccccc1 (centres undefined)
Key: 6.02

Exercise: Please report pEC50 for the following molecule: CCCn1c(SCC(=O)c2cccs2)nc2sc3c(c2c1=O)CCCC3
Key: 5.89

Exercise: Please report pEC50 for the following molecule: CS(=O)(=O)c1ccc(C(=O)Nc2ccc(Cl)c(-c3ccccn3)c2)c(Cl)c1
Key: 7.89

Exercise: Please report pEC50 for the following molecule: C=C(C)Cn1c(SCC(=O)N2CCCCC2)nc2sc3c(c2c1=O)CCCC3
Key: 4.97

Exercise: Please report pEC50 for the following molecule: O=C(CSc1nc2sc3c(c2c(=O)n1C1CC1)CCCC3)c1cccs1
Key: 5.72

Exercise: Please report pEC50 for the following molecule: CN(C)c1ccccc1CN1CCCN(Cc2ccccc2N(C)C)C1c1ccncc1
Key: 5.03

Exercise: Please report pEC50 for the following molecule: O=C(CSc1nc2sccc2c(=O)n1C1CC1)c1ccccc1
Key: 7.09
